meta.source: patent US7482379B2

Target: Caspase-10 (Homo sapiens, UniProt Q92851)
Sequence (Q92851 220-415 limits assumed): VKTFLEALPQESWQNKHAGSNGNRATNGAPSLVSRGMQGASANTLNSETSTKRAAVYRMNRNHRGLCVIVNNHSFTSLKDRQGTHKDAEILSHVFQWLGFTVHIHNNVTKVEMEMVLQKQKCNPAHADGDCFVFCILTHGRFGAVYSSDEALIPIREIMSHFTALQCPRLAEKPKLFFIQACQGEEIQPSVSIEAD
Sequence (Q92851 416-521 limits assumed): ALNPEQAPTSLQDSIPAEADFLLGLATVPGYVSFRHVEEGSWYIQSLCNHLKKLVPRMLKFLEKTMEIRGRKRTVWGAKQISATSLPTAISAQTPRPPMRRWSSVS
Assay: Caspase-10 progress curve inhibition assay
Conditions: second-order rate constant; Ac-DEVD-AMC substrate; Hepes/PEG buffer pH 7.0
Would you kindly list k2 Caspase-10 for each of these molecules?

Endpoint output: k2 Caspase-10 of CC(C)C[C@H](NC(=O)OCc1ccccc1)C(=O)N[C@@H](CCC(=O)O)C(=O)N[C@H](C(=O)NN(CC(=O)O)C(=O)/C=C/C(=O)N(C)CCc1ccccc1)[C@@H](C)O (relative stereo) . Value?
6,190 M^−1s^−1

Endpoint output: k2 Caspase-10 of CC(C)[C@H](NC(=O)[C@H](CCC(=O)O)NC(=O)[C@H](CC(=O)O)NC(=O)OCc1ccccc1)C(=O)NN(CC(=O)O)C(=O)/C=C/C(=O)NCc1ccc(F)cc1 (relative stereo) . Value?
37,700 M^−1s^−1

Endpoint output: k2 Caspase-10 of CC(C)C[C@H](NC(=O)OCc1ccccc1)C(=O)N[C@@H](CCC(=O)O)C(=O)N[C@H](C(=O)NN(CC(=O)O)C(=O)/C=C/C(=O)Nc1ccccc1)[C@@H](C)O (relative stereo) . Value?
6,050 M^−1s^−1

Endpoint output: k2 Caspase-10 of CC[C@H](C)[C@H](NC(=O)OCc1ccccc1)C(=O)N[C@@H](CCC(=O)O)C(=O)N[C@H](C(=O)NN(CC(=O)O)C(=O)/C=C/C(=O)N(C)CCc1ccccc1)[C@@H](C)O (relative stereo) . Value?
8,770 M^−1s^−1

Endpoint output: k2 Caspase-10 of `CC(C)[C@H](NC(=O)[C@H](CCC(=O)O)NC(=O)[C@H](CC(=O)O)NC(=O)OCc1ccccc1)C(=O)NN(CC(=O)O)C(=O)C=CC(=O)N(Cc1cccc2ccccc12)Cc1cccc2ccccc12` . Value?
32,500 M^−1s^−1

* * *

Molecular target: Caspase-10 (Homo sapiens)
Assay: Caspase-10 progress curve inhibition assay
Details: second-order rate constant; Ac-DEVD-AMC substrate; Hepes/PEG buffer pH 7.0
readout type: k2 Caspase-10

Lab note: need k2 Caspase-10 with Caspase-10 (Homo sapiens) for entry CC(C)C[C@H](NC(=O)OCc1ccccc1)C(=O)N[C@@H](CCC(=O)O)C(=O)N[C@H](C(=O)NN(CC(=O)O)C(=O)/C=C/C(=O)N(Cc1ccccc1)Cc1ccccc1)[C@@H](C)O (relative stereo) [Cbz-Leu-Glu-Thr-AAsp-CH═CH—CON(CH2Ph)2] , please look it up.
8,080 M^−1s^−1

Lab note: need k2 Caspase-10 with Caspase-10 (Homo sapiens) for entry CC[C@H](C)[C@H](NC(=O)OCc1ccccc1)C(=O)N[C@@H](CCC(=O)O)C(=O)N[C@H](C(=O)NN(CC(=O)O)C(=O)/C=C/C(=O)Nc1ccccc1)[C@@H](C)O (relative stereo) [Cbz-Ile-Glu-Thr-AAsp-CH═CH—CONHPh] , please look it up.
9,210 M^−1s^−1

Lab note: need k2 Caspase-10 with Caspase-10 (Homo sapiens) for entry CC(C)[C@H](NC(=O)[C@H](CCC(=O)O)NC(=O)[C@H](CC(=O)O)NC(=O)OCc1ccccc1)C(=O)NN(CC(=O)O)C(=O)/C=C/C(=O)N(C)Cc1ccccc1 (relative stereo) [Cbz-Asp-Glu-Val-AAsp-CH═CH—CON(CH3)CH2Ph] , please look it up.
29,400 M^−1s^−1

Lab note: need k2 Caspase-10 with Caspase-10 (Homo sapiens) for entry CC[C@H](C)[C@H](NC(=O)OCc1ccccc1)C(=O)N[C@@H](CCC(=O)O)C(=O)N[C@H](C(=O)NN(CC(=O)O)C(=O)/C=C/C(=O)NCc1ccccc1)[C@@H](C)O (relative stereo) [Cbz-Ile-Glu-Thr-AAsp-CH═CH—CONHCH2Ph] , please look it up.
503 M⁻¹ s⁻¹

* * *

Target: Caspase-2 (Homo sapiens)
Sequence (P42575 170-333 limits assumed): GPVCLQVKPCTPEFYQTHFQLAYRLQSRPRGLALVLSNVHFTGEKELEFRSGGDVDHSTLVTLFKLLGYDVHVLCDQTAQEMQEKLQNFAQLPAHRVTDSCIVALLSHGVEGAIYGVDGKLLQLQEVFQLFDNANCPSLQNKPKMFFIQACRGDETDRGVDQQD
Sequence (P42575 348-452 limits assumed): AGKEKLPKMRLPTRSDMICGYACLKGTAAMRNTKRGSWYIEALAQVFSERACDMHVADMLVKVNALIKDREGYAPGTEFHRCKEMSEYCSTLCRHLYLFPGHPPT
Experiment: Caspase-2 progress curve inhibition assay
Details: second-order rate constant; Cbz-VDVAD-AFC substrate; Pipes buffer pH 7.2
Would you kindly list k2 Caspase-2 for each of these compounds?
Give the value in M⁻¹ s⁻¹ but do not write M⁻¹ s⁻¹ after it.

Endpoint output: k2 Caspase-2 of CC(C)[C@H](NC(=O)[C@H](CCC(=O)O)NC(=O)[C@H](CC(=O)O)NC(=O)OCc1ccccc1)C(=O)NN(CC(=O)O)C(=O)/C=C/C(=O)c1ccccc1 (relative stereo) . Value?
165

Endpoint output: k2 Caspase-2 of CC(C)[C@H](NC(=O)[C@H](CCC(=O)O)NC(=O)[C@H](CC(=O)O)NC(=O)OCc1ccccc1)C(=O)NN(CC(=O)O)C(=O)/C=C/C(=O)NCCc1ccccc1 (relative stereo) . Value?
120

Endpoint output: k2 Caspase-2 of CC(C)C[C@H](NC(=O)OCc1ccccc1)C(=O)N[C@@H](CCC(=O)O)C(=O)N[C@H](C(=O)NN(CC(=O)O)C(=O)/C=C/C(=O)N(C)Cc1cccc2ccccc12)[C@@H](C)O (relative stereo) . Value?
290

Endpoint output: k2 Caspase-2 of `CC(C)[C@H](NC(=O)[C@H](CCC(=O)O)NC(=O)[C@H](CC(=O)O)NC(=O)OCc1ccccc1)C(=O)NN(CC(=O)O)C(=O)C=CC(=O)N(Cc1cccc2ccccc12)Cc1cccc2ccccc12` . Value?
410

Endpoint output: k2 Caspase-2 of CC[C@H](C)[C@H](NC(=O)OCc1ccccc1)C(=O)N[C@@H](CCC(=O)O)C(=O)N[C@H](C(=O)NN(CC(=O)O)C(=O)/C=C/C(=O)N(Cc1ccccc1)Cc1ccccc1)[C@@H](C)O (relative stereo) . Value?
76

Endpoint output: k2 Caspase-2 of CC[C@H](C)[C@H](NC(=O)OCc1ccccc1)C(=O)N[C@@H](CCC(=O)O)C(=O)N[C@H](C(=O)NN(CC(=O)O)C(=O)/C=C/C(=O)N(C)CCc1ccccc1)[C@@H](C)O (relative stereo) . Value?
38

Endpoint output: k2 Caspase-2 of CCOC(=O)/C=C/C(=O)N(CC(=O)O)NC(=O)[C@@H](NC(=O)[C@H](CCC(=O)O)NC(=O)[C@@H](NC(=O)OCc1ccccc1)[C@@H](C)CC)[C@@H](C)O (relative stereo) . Value?
300

Endpoint output: k2 Caspase-2 of CC(C)[C@H](NC(=O)[C@H](CCC(=O)O)NC(=O)[C@H](CC(=O)O)NC(=O)OCc1ccccc1)C(=O)NN(CC(=O)O)C(=O)/C=C/C(=O)NCc1ccc(F)cc1 (relative stereo) . Value?
130

Endpoint output: k2 Caspase-2 of CC(C)C[C@H](NC(=O)OCc1ccccc1)C(=O)N[C@@H](CCC(=O)O)C(=O)N[C@H](C(=O)NN(CC(=O)O)C(=O)/C=C/C(=O)NCCc1ccccc1)[C@@H](C)O (relative stereo) . Value?
110

Endpoint output: k2 Caspase-2 of CC(C)[C@H](NC(=O)[C@H](CCC(=O)O)NC(=O)[C@H](CC(=O)O)NC(=O)OCc1ccccc1)C(=O)NN(CC(=O)O)C(=O)/C=C/C(=O)N(C)CCc1ccccc1 (relative stereo) . Value?
320

Endpoint output: k2 Caspase-2 of CC(C)[C@H](NC(=O)[C@H](CCC(=O)O)NC(=O)[C@H](CC(=O)O)NC(=O)OCc1ccccc1)C(=O)NN(CC(=O)O)C(=O)/C=C/C(=O)N(Cc1ccccc1)Cc1ccccc1 (relative stereo) . Value?
110

Endpoint output: k2 Caspase-2 of CC(C)C[C@H](NC(=O)OCc1ccccc1)C(=O)N[C@@H](CCC(=O)O)C(=O)N[C@H](C(=O)NN(CC(=O)O)C(=O)/C=C/C(=O)N(C)CCc1ccccc1)[C@@H](C)O (relative stereo) . Value?
50

Endpoint output: k2 Caspase-2 of CC(C)C[C@H](NC(=O)OCc1ccccc1)C(=O)N[C@@H](CCC(=O)O)C(=O)N[C@H](C(=O)NN(CC(=O)O)C(=O)/C=C/C(=O)NCc1ccc(F)cc1)[C@@H](C)O (relative stereo) . Value?
70

Endpoint output: k2 Caspase-2 of CC(C)C[C@H](NC(=O)OCc1ccccc1)C(=O)N[C@@H](CCC(=O)O)C(=O)N[C@H](C(=O)NN(CC(=O)O)C(=O)/C=C/C(=O)N(C)Cc1ccccc1)[C@@H](C)O (relative stereo) . Value?
140

Endpoint output: k2 Caspase-2 of CC(C)[C@H](NC(=O)[C@H](CCC(=O)O)NC(=O)[C@H](CC(=O)O)NC(=O)OCc1ccccc1)C(=O)NN(CC(=O)O)C(=O)/C=C/C(=O)NCc1ccccc1 (relative stereo) . Value?
130

Endpoint output: k2 Caspase-2 of CCOC(=O)/C=C/C(=O)N(CC(=O)O)NC(=O)[C@@H](NC(=O)[C@H](CCC(=O)O)NC(=O)[C@@H](NC(=O)OCc1ccccc1)C(C)C)C(C)C (relative stereo) . Value?
115

Endpoint output: k2 Caspase-2 of CCOC(=O)/C=C/C(=O)N(CC(=O)O)NC(=O)[C@@H](NC(=O)[C@H](CCC(=O)O)NC(=O)OCc1ccccc1)C(C)C (relative stereo) . Value?
90
